# TEST TARGET: glucagon receptor, P47871
# Sequence (P47871 26-477 limits assumed): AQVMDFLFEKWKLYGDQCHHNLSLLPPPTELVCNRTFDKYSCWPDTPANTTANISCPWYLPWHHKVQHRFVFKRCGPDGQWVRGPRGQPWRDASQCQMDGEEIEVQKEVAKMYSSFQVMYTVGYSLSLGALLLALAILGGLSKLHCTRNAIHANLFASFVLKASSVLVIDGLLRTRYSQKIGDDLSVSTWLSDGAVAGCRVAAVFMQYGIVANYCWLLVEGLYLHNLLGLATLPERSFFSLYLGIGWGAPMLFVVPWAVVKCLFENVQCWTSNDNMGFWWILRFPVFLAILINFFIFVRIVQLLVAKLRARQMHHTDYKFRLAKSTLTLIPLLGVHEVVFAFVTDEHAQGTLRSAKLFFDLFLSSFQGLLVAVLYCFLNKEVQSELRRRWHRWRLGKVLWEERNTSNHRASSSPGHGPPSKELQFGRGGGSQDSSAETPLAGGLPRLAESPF
# METHOD SUMMARY: cell-based or functional assay
Non-standard residues stand in square brackets, D forms with d. No end group written: not given here. *: point of attachment. Myristoyl = CCCCCCCCCCCCCC(=O)*; Aib = CC(C)(N)C(=O)O
QUANTITY: EC50
Returns: string containing the number followed by the unit.

Input line: May I ask what EC50 has been recorded for H[Aib]QGTFTSDYSKYLDEQAAKEFIC(PEG 40 kDa)WLMNGGPSSGAPPPSK(Myristoyl)-NH2 [mt-349] ?
Output line: 0.549 nM

These measurements were taken from patent US20120172295A1.
